# test-system: 17β-HSD3 enzyme (Homo sapiens)
# Construct: expressed in transfected cells; host or cells: MCF-7 cell lines stably expressing 17β-HSD3
# Sequence (P37058 1-310): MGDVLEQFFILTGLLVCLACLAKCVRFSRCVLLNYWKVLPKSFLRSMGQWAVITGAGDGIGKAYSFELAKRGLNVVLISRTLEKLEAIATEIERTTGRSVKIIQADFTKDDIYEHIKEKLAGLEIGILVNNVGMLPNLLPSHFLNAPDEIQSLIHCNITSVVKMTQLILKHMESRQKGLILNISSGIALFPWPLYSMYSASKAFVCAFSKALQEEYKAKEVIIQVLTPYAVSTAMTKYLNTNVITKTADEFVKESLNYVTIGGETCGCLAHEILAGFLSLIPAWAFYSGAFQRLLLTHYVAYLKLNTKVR
# experiment-notes: Inhibition of 17β-HSD type 3 enzyme in MCF-7 cells stably expressing 17β-HSD3 (HPLC)
# Format: cell-based
# recorded-conditions: MCF7; 1 μM compound; MCF-7 cells expressing 17β-HSD3, 2 nM androstenedione
Threshold check on inhibition at 1 µM: at or above 30% gives 1 (yes), strictly below gives 0 (no).

Example entries begin here.
> print(dat)
                                   molecule  category.label
1  CCN(CC)C(=O)CCC[C@H]1CC(F)(F)[C@@]2(C)CC[C@@H]3c4ccc(B(O)O)cc4CC[C@H]3[C@H]12 [Compound 49]         1 (yes)
2  Cc1cnc(NC(=O)CC[C@@H]2CC(F)(F)[C@@]3(C)CC[C@@H]4c5ccc(C(N)=O)cc5CC[C@H]4[C@H]23)s1 [Compound 8]          0 (no)
3  C[C@]12CC[C@@H]3c4ccc(B(O)O)cc4CC[C@H]3[C@@H]1[C@H](CCC(=O)NCc1ccccc1)CC2(F)F [Compound 63]         1 (yes)
4  C[C@]12CC[C@@H]3c4ccc(B(O)O)cc4CC[C@H]3[C@@H]1[C@@H](CCCC(=O)NCc1cccnc1)CC2(F)F [Compound 53]          0 (no)

Ask: I'd appreciate it if you could say whether C[C@]12CC[C@@H]3c4ccc(B(O)O)cc4CC[C@H]3[C@@H]1[C@@H](CCCC(=O)N1CCCCC1)CC2(F)F [Compound 57] has inhibition at 1 µM at least equal to 30%.
Reply: 0 (no)

Ask: Has CCN(CC)C(=O)CC[C@@H]1CC(F)(F)[C@@]2(C)CC[C@@H]3c4ccc(B(O)O)cc4CC[C@H]3[C@H]12 [Compound 71] a recorded inhibition at 1 µM greater than or equal to 30%?
Reply: 1 (yes)
